Data credit: patent US20010007152A1

SYSTEM_TESTED: HLA A2.1 (UniProt P01901+P04439, D140Y/D185E/D98H/E176V/G131W/I119V/I121R/I166T/N151K/N90K/Q86G/Q94H/R138H/R169H)
Construct: expressed in transfected cells; host or cells: T2-A2.1/K^b cells
RUN_DESCRIPTION: Competition assay: inhibition of influenza matrix peptide M1 (58-66) binding to A2.1, read as inhibition of lysis by an M1-specific CTL clone
Design: species or system human
CONDITION_DESCRIPTION: test peptide 10 μg vs influenza matrix peptide 0.1 μg; T2-A2.1/K^b target cells
QUANTITY_KIND: % INHIBITION

For orientation, consider the following solved cases.
RLLQETELV [H13] ... 56%
VMAGVGSPYV [H7] ... 55%
KIPVAIKVL [H14, Her-2/neu peptide 747-755] ... 35%
HLYQGOQW [H12] ... 15%

Prompt line: Entry under review: TLSPGKNGV [H24, Her-2/neu peptide 1172-1180] . Reported % INHIBITION?
Response line: 57%

Prompt line: Report % INHIBITION for ELVSEFSRM [H20, Her-2/neu peptide 971-979] please.
Response line: 5%

Prompt line: Can you look up the measured % INHIBITION of DIDETEYHA [H18, Her-2/neu peptide 871-879] for me?
Response line: 37%

###

Below, each entry is listed alongside its reported % INHIBITION.
SYSTEM_TESTED: HLA A2.1 (UniProt P01901+P04439, D140Y/D185E/D98H/E176V/G131W/I119V/I121R/I166T/N151K/N90K/Q86G/Q94H/R138H/R169H)
Construct: expressed in transfected cells; host or cells: T2-A2.1/K^b cells
RUN_DESCRIPTION: Competition assay: inhibition of influenza matrix peptide M1 (58-66) binding to A2.1, read as inhibition of lysis by an M1-specific CTL clone
Parameters: species or system human
CONDITION_DESCRIPTION: test peptide 10 μg vs influenza matrix peptide 0.1 μg; T2-A2.1/K^b target cells
Express it in %; write the number only.

VLQGLPREYV [H8, Her-2/neu peptide 546-555] ... 43

Prompt line: Param item = DLLEKGERL [H19, Her-2/neu peptide 933-941] ; retrieve measured % INHIBITION.
Response line: 36

Prompt line: Query (sequence): TLQGLGISWL [H6, Her-2/neu peptide 444-453] ; field requested: % INHIBITION
Response line: 56

###

SYSTEM_TESTED: HLA A2.1 (UniProt P01901+P04439, D140Y/D185E/D98H/E176V/G131W/I119V/I121R/I166T/N151K/N90K/Q86G/Q94H/R138H/R169H)
Construct: expressed in transfected cells; host or cells: T2-A2.1/K^b cells
RUN_DESCRIPTION: Competition assay: inhibition of influenza matrix peptide M1 (58-66) binding to A2.1, read as inhibition of lysis by an M1-specific CTL clone
Design: species or system human
CONDITION_DESCRIPTION: test peptide 10 μg vs influenza matrix peptide 0.1 μg; T2-A2.1/K^b target cells
Protocol: Briefly, each test peptide (10 μg) was incubated with radiolabeled target cells (T2-A2.1/K^b, 10^6 target cells labeled with […] ^51Cr at 37° for 1.5 hours) in the presence of an influenza virus matrix protein (0.1 μg). The ability of these peptides to inhibit the binding of the influenza matrix protein peptide MI (58-66) to A2.1 was measured by inhibition of lysis by an M1 (58-66) specific, A2.1 restricted CTL clone.
QUANTITY_KIND: % INHIBITION (%)
Return type: number; implicit unit %.

Example sequences with recorded % INHIBITION:
VLVKSPNHV [H17, Her-2/neu peptide 851-859] ... 12
ELVSEFSRMA [H21, Her-2/neu peptide 971-980] ... 25
QLMPYGCLL [H16, Her-2/neu peptide 799-807] ... 50

Prompt line: Look up % INHIBITION for this sequence: DLVDAEEYL [H23, Her-2/neu peptide 1016-1024]
Response line: 35

Prompt line: So what does the record say about % INHIBITION for LVSEFSRMA [H22, Her-2/neu peptide 972-980] ?
Response line: 14
